// IC50 collected for Cyclin-dependent kinase 9 (Homo sapiens, UniProt P50750)
parameter: IC50

INSERT INTO results (compound, parameter, observed_measurement) VALUES
  ('CC(C)c1cnn2c(NCc3cccc4c3cnn4C)nc(OC3CCCNC3)nc12 (centres undefined)', 'IC50', '< 50 nM'),
  ('CC(C)c1cnn2c(NCc3cccc4[nH]ncc34)nc(OC3CCCNC3)nc12 (centres undefined)', 'IC50', '< 50 nM'),
  ('Clc1cnc(N[C@H]2CCCNC2)nc1-c1c[nH]c2ccccc12', 'IC50', '> 200 nM'),
  ('Clc1cnc(N[C@@H]2CCCNC2)nc1-c1c[nH]c2ccccc12', 'IC50', '> 200 nM');

These data points were gathered from ChEMBL document CHEMBL4402527.
